# target.of.assay: T1, monkey CD19 on HEK293T-monkey CD19 cells (monkey)
# T1 construct: whole, on cells
# assay.info: FACS on HEK293T-monkey CD19 cells
measurement.kind: Maximum mean fluorescence intensity

Recorded Maximum mean fluorescence intensity of F3.124.7 (antibody, human IgG1, V domains shown, human-murine chimeric antibody, human IgG1) VH: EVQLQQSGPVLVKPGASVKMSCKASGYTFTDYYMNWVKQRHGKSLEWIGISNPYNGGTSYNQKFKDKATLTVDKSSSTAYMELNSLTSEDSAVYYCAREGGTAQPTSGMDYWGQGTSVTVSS VL: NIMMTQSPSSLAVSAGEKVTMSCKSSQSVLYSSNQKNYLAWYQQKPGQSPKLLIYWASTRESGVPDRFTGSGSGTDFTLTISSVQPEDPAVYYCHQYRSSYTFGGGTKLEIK , please. 112000

Others:
Returns the measured Maximum mean fluorescence intensity for the input binder. Input: F1-mab003 (antibody, human IgG1, V domains shown, human-murine chimeric antibody, human IgG1) VH: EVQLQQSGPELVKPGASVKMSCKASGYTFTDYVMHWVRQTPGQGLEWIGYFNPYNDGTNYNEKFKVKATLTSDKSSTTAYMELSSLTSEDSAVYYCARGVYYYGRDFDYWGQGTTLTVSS VL: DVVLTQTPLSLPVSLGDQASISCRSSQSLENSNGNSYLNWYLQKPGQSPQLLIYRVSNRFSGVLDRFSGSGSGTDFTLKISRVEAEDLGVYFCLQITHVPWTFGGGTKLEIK 75000
